All figures here come from paper PMC3367199.

# ASSAY_TARGET: T1, rCRR22 (UniProt Q3E6Q1 47-809)
# T1 sequence: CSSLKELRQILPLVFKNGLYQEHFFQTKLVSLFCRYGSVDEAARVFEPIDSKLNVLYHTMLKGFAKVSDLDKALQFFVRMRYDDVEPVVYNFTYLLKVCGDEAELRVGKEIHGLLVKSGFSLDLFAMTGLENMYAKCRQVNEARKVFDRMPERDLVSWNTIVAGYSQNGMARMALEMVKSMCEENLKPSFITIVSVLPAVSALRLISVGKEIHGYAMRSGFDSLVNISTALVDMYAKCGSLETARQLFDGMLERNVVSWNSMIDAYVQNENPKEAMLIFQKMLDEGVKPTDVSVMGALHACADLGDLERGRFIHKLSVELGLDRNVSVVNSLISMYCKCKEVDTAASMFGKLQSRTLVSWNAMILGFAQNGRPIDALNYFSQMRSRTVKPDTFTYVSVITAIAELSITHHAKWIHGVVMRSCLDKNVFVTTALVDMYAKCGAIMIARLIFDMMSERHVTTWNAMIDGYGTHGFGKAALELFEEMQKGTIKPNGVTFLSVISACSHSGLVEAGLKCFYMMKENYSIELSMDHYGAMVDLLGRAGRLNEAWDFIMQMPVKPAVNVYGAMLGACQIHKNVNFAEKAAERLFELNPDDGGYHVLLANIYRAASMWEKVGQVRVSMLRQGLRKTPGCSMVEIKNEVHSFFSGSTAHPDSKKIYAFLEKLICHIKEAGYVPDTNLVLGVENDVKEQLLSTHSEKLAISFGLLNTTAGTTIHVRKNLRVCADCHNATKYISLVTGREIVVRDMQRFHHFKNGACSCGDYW
# METHOD_SUMMARY: EMSA
EXPERIMENTAL_ENDPOINT: pKd
To interpret pKd, take it as minus log10 of a concentration measured in moles per litre.

Field: example entries. Status: answers known.
UGCAGCUUCAACAUCUCC (ssRNA) [ndhD5S2] ... 7.02
CAAGCUUUCCCUAGCCCCUUC (ssRNA) [ndhB7S] ... 8.04
GCUUUCCCUAGCCCCUUC (ssRNA) [ndhB7S2] ... 7.15
AAUUCGUGUAUAUAUUUC (ssRNA) [rpoB3S2] ... 7.72

Q: Item under review: UUAUGCAGCUUCAACAUCUCC (ssRNA) [ndhD5S] . Reported pKd?
A: 7.97

Q: Entry AAUAAUUCGUGUAUAUAUUUC (ssRNA) [rpoB3S] : reported pKd = ?
A: 7.87
